# Assay overview: Inhibition of cell proliferation of human DLD-1 cells expressing BRCA2-/- incubated for 7 days by Sytox green dye based analysis
# Format: functional
# Assay context: DLD-1, 168 h
# reported pIC50; entries follow
pIC50 field: float, defined as -log10 of concentration (mol/L).

Below: 8 compounds and their reported pIC50.
CNCc1ccc(-c2[nH]c3cc(F)cc4c3c2CCNC4=O)cc1    7.41
CCc1nc2ccc(CN3CCN(c4cnc(F)cc4C)CC3)cc2[nH]c1=O    7.89
C[C@]12CCCN1CC1=NNC(=O)c3cc(F)cc4[nH]c2c1c34    8.15
CCc1nc2ccc(CN3CCN(c4ccc(C(=O)NC)nc4Cl)CC3)cc2[nH]c1=O    9.00
CCc1cc2ccc(CN3CCN(c4cnc(C(=O)NC)cc4C)CC3)cc2[nH]c1=O    5.94
NC(=O)c1cccc2cn(-c3ccc([C@@H]4CCCNC4)cc3)nc12    6.78
C[C@]1(c2nc3c(C(N)=O)cccc3[nH]2)CCCN1    5.89
CNC(=O)c1ccc(N2CCN(Cc3ccc4nc(C)c(=O)[nH]c4c3F)CC2)c(C)n1    8.15

Lab note: measured pIC50 of CCc1nc2ccc(CN3CCN(c4ccc(C(=O)NC)nc4F)CC3)cc2[nH]c1=O was 9.00

Per the records, this compound ( CCc1nc2ccc(CN3CCN(c4ccc(C(=O)NC)nc4F)CC3)c(F)c2[nH]c1=O ) has pIC50 equal to 8.30
